Taken from patent US9296723B2.

# tested_system: NAMPT (Homo sapiens, UniProt P43490)
# Sequence (P43490 whole entry): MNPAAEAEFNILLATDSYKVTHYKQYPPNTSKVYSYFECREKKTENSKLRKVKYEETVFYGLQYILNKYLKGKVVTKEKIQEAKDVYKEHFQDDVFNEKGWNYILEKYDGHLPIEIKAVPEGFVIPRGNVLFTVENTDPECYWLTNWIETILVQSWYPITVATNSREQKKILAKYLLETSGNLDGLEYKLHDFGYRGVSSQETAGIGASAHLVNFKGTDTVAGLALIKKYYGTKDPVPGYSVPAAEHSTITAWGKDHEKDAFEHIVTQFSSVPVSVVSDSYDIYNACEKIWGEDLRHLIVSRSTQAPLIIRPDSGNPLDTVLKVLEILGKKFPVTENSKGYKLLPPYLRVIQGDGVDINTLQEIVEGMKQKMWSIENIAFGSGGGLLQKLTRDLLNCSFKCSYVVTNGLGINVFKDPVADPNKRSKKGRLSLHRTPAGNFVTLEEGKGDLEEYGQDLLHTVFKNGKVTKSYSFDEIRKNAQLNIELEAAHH
# measurement_protocol: TR-FRET Binding Assay of NAMPT with PRPP
# study_conditions: 2 nM NAMPT, 2 nM probe, 200 µM PRPP and 2.5 mM ATP, equilibrated 16 hours
# Procedure: Time-Resolved Fluorescence Resonance Energy Transfer (TR-FRET) Binding Assay of NAMPT with PRPP Compound handling and data processing were identical to the assay in the absence of substrates (above). Final concentrations were 1× assay buffer, 2% DMSO, 2 nM NAMPT, 2 nM probe, 1 nM Tb-anti-His antibody (Invitrogen #PV5895), 200 µM PRPP and 2.5 mM ATP. Reactions were equilibrated for 16 hours prior to measurement to allow for potential enzymatic modification of test compounds.
Catalogue of IC50 values
Unit pM implied. Number only.

Illustrative cases are given below, each with its answer.
stdin: What value of IC50 has been recorded for this entry: O=C(CN1CCCC1)N1CCC(c2ccc(NC(=O)N3CC(c4cccnc4)C3)cc2)CC1 [Example 194]
stdout: 592

stdin: Entry CC(C)C(=O)N1CC=C(c2ccc(NC(=O)N3CC(c4cccnc4)C3)cc2)CC1 [Example 27] has what IC50?
stdout: 243

stdin: Reported IC50, compound CC(C)(C)CN1CC(c2ccc(NC(=O)N3CC(c4cccnc4)C3)cc2)C1 [Example 254] : ____
stdout: 174

stdin: So what's the measured IC50 for this one? CCOCC(=O)N1CCC(Oc2ccc(NC(=O)N3CC(c4cccnc4)C3)cc2)CC1 [Example 46]
stdout: 226

stdin: Fill in: IC50 of O=C(CC1C[C@@H]2CC[C@H]1C2)N1CC(Oc2ccc(NC(=O)N3CC(c4cccnc4)C3)cc2)C1 (some centres unmarked) [Example 122] is ___
stdout: 588

More entries:
stdin: Tell me the measured IC50 of O=C(CCN1CCCC1)N1CCC(Oc2ccc(NC(=O)N3CC(c4cccnc4)C3)cc2)CC1 [Example 39] , please.
stdout: 338

stdin: Quick check: IC50 of CC(=O)C(=O)N1CCC(c2ccc(NC(=O)N3CC(c4cccnc4)C3)cc2)C1 (centres unmarked) [Example 291] ?
stdout: 207

stdin: State the recorded IC50 for this entry: Cc1ccc(C2CN(C(=O)Nc3ccc(OC4CCN(C(=O)CC5CCOCC5)CC4)cc3)C2)cn1 [Example 8]
stdout: 15400

----------
# tested_system: NAMPT (Homo sapiens, UniProt P43490)
# measurement_protocol: Time-Resolved Fluorescence Resonance Energy Transfer (TR-FRET) Binding Assay of NAMPT
# study_conditions: 6.8 nM NAMPT, 200 nM probe, equilibrated 3 hours, no substrates
Attribute: pIC50
pIC50 field: float, defined as -log10 of concentration (mol/L).

The examples below pair each entry with its known result.
stdin: Fill blank: measured pIC50 of the compound O=C(Nc1ccc(C2CN(CC3CC3)C2)cc1)N1CC(c2cccnc2)C1 [Example 248] is ____.
stdout: 6.00

stdin: Consider the compound shown here: CCCN1CCC(c2ccc(NC(=O)N3CC(c4cccnc4)C3)cc2)CC1 [Example 241] What is its recorded pIC50?
stdout: 6.44

stdin: Query (compound): O=C(Nc1ccc(C2CCN(C(=O)[C@H]3CCCO3)CC2)cc1)N1CC(c2cccnc2)C1 [Example 54] ; field requested: pIC50
stdout: 6.93

stdin: Using the record for CC(C)C(=O)N1CCC(c2ccc(NC(=O)N3CC(c4cccnc4)C3)cc2)CC1 [Example 56] , report its pIC50.
stdout: 7.56

stdin: Quick one: pIC50 of CCCC(C)CN1CC(c2ccc(NC(=O)N3CC(c4cccnc4)C3)cc2)C1 (centres unmarked) [Example 249] ?
stdout: 6.71

Others:
stdin: Value lookup for pIC50; key = CCC(C)CN1CCC(c2ccc(NC(=O)N3CC(c4cccnc4)C3)cc2)CC1 (centres unmarked) [Example 239]
stdout: 5.77

stdin: Requested read-out: pIC50. Entry: CCOCCC(=O)N1CC(c2ccc(NC(=O)N3CC(c4cccnc4)C3)cc2)C1 [Example 203]
stdout: 6.60

stdin: Value lookup for pIC50; key = O=C(Nc1ccc(C2CCN(C(=O)c3ccccc3)CC2)cc1)N1CC(c2cccnc2)C1 [Example 57]
stdout: 8.16

----------
# tested_system: NAMPT (Homo sapiens, UniProt P43490)
# measurement_protocol: Time-Resolved Fluorescence Resonance Energy Transfer (TR-FRET) Binding Assay of NAMPT
# study_conditions: 6.8 nM NAMPT, 200 nM probe, equilibrated 3 hours, no substrates
# Experimental: Determination of the utility of compounds having Formula (I) as binders to and inhibitors of NAMPT was performed using Time-Resolved Fluorescence Resonance Energy Transfer (TR-FRET) binding assays. Time-Resolved Fluorescence Resonance Energy Transfer (TR-FRET) Binding Assay of NAMPT Six L were transferred to 384-well low-volume plates ([…] #3673). To this, 12 L of a 1.5× solution containing enzyme, probe and antibody were added. […]
Binary label based on IC50 with cut-off 80 nM: below gives 1, not below gives -1.

stdin: Is IC50 of Cn1cccc1C(=O)N1CCC(c2ccc(NC(=O)N3CC(c4cccnc4)C3)cc2)C1 (centres unmarked) [Example 285] strictly below 80 nM?
stdout: 1

stdin: Find out if reported IC50 for O=C(Nc1ccc(O[C@H]2CCN(C(=O)C3CC3)C2)cc1)N1CC(c2cccnc2)C1 [Example 97] is less than 80 nM
stdout: -1

# input for lookup
stdin: Say whether its IC50 is strictly beneath 80 nM. Entry: O=C(Nc1ccc(O[C@@H]2CCN(C(=O)c3ccoc3)C2)cc1)N1CC(c2cccnc2)C1 [Example 303]
stdout: 1

----------
# tested_system: NAMPT (Homo sapiens)
# measurement_protocol: TR-FRET Binding Assay of NAMPT with PRPP
# study_conditions: 2 nM NAMPT, 2 nM probe, 200 µM PRPP and 2.5 mM ATP, equilibrated 16 hours
assay_readout: pIC50
In plain terms, pIC50 is the concentration in mol/L turned into minus its base-10 logarithm.

stdin: Look at this compound and give its reported pIC50. CC(C)(C)OC(=O)N1CCC(c2ccc(NC(=O)N3CC(c4cccnc4F)C3)cc2)CC1
stdout: 9.13

stdin: Form field: reported pIC50 of CC(C)(O)C(=O)N1CC[C@H](Oc2ccc(NC(=O)N3CC(c4cccnc4)C3)cc2)C1
stdout: 9.67

stdin: Given O=C(Nc1ccc(C2CCN(C(=O)C3CCCC3)C2)cc1)N1CC(c2cccnc2)C1 (stereo not drawn) , state its recorded pIC50.
stdout: 9.57

stdin: Which measured pIC50 value corresponds to O=C(CC1CCCCC1)N1CCC(c2ccc(NC(=O)N3CC(c4cccnc4)C3)cc2)C1 (stereo not drawn) ?
stdout: 9.67

stdin: Please give the measured pIC50 for this compound: COCCOCC(=O)N1CC[C@@H](Oc2ccc(NC(=O)N3CC(c4cccnc4)C3)cc2)C1
stdout: 9.39

Further cases:
stdin: Give the measured pIC50 of CN1CCN(CCC(=O)N2CCC(Oc3ccc(NC(=O)N4CC(c5cccnc5)C4)cc3)CC2)CC1 .
stdout: 9.70

stdin: Any idea what its pIC50 is? The compound is CC(C)CN1CC(c2ccc(NC(=O)N3CC(c4cccnc4)C3)cc2)C1
stdout: 9.44

----------
# tested_system: NAMPT (Homo sapiens)
# measurement_protocol: TR-FRET Binding Assay of NAMPT with PRPP
# study_conditions: 2 nM NAMPT, 2 nM probe, 200 µM PRPP and 2.5 mM ATP, equilibrated 16 hours
Mark MET only for IC50 values smaller than 0.3 nM; exact matches and larger values are NOT MET.

stdin: Lab note: confirm whether the reported IC50 for this compound is below 0.3 nM, equality not counting. compound: O=C(Nc1ccc(OC2CN(C(=O)c3ccno3)C2)cc1)N1CC(c2cccnc2)C1
stdout: NOT MET

stdin: In plain terms, does CC(C)(C)CC(=O)N1CC[C@@H](Oc2ccc(NC(=O)N3CC(c4cccnc4)C3)cc2)C1 come in under 0.3 nM for IC50?
stdout: MET

stdin: Lab log: compare recorded IC50 with 0.3 nM; is it strictly lower for O=C(CN1CCCC1)N1CC(Oc2ccc(NC(=O)N3CC(c4cccnc4)C3)cc2)C1 ?
stdout: NOT MET

stdin: Hello, is IC50 of the following compound strictly smaller than 0.3 nM? O=C(Nc1ccc(C2CN(C(=O)c3ccccc3)C2)cc1)N1CC(c2cccnc2)C1
stdout: NOT MET

stdin: Report whether reported IC50 is lower than 0.3 nM (strictly) for CCC(=O)N1CCC(c2ccc(NC(=O)N3CC(c4cccnc4)C3)cc2)CC1
stdout: MET

More entries:
stdin: A record lists CC(C)C(C)C(=O)N1CC[C@@H](Oc2ccc(NC(=O)N3CC(c4cccnc4)C3)cc2)C1 (some centres unmarked) . Is its IC50 below 0.3 nM?
stdout: NOT MET

stdin: Is the reported IC50 for O=C1CC[C@@H](C(=O)N2CC[C@@H](Oc3ccc(NC(=O)N4CC(c5cccnc5)C4)cc3)C2)N1 strictly below 0.3 nM?
stdout: MET

stdin: Please indicate whether the reported IC50 of O=C(CC1CCOCC1)N1CC[C@H](Oc2ccc(NC(=O)N3CC(c4cccnc4)C3)cc2)C1 is strictly below 0.3 nM.
stdout: NOT MET
